Reported IC50 on Histone deacetylase 2 (Homo sapiens, UniProt Q92769) for assorted molecules, compiled from publications.
Sequence (Q92769 whole entry): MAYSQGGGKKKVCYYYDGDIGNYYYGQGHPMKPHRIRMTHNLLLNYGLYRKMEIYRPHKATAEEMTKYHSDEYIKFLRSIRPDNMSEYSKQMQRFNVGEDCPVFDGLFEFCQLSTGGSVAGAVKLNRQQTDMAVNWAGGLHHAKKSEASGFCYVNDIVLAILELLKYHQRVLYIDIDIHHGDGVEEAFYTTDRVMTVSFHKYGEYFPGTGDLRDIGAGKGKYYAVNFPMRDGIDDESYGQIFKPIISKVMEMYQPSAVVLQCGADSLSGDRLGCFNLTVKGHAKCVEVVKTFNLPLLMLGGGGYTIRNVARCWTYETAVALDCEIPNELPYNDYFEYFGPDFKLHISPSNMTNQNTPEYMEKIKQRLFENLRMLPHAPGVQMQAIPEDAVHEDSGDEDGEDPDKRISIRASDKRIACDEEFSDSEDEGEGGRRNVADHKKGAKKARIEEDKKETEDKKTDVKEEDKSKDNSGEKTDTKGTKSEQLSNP

Could you report IC50 for every entry in the following list?
1. COc1nc(-c2ccc(NC(=O)Nc3ccc(C(=O)Nc4ccccc4N)cc3)cc2)nc(N2CCOCC2)n1
2. OC1(c2ccccc2)C=C(c2ccccc2)CO1 (stereo not given)

Result:
["> 10 µM", "0.17 µM"]

Report IC50 for every entry below.
1. O=C(NO)c1ccc(Cn2ccc3cc(C(=O)c4ccc(Cl)cc4)ccc32)cc1
2. Nc1ccccc1NC(=O)CCNC(=O)c1ccc(NC(=O)Nc2ccc(-c3nc(N4CCOCC4)nc(N4CCOCC4)n3)cc2)cc1
3. CC(C)S(=O)(=O)c1ccccc1Nc1nc(Nc2ccc(NC(=O)CCCCCCC(=O)NO)cc2)ncc1Cl

Result:
1. 2.1 µM
2. > 10 µM
3. 0.0093 µM
